system: c-Abl (mouse); test: phosphorylation enrichment, bacterial display (enrichment ratio); higher = better substrate or ligand; peptides without Tyr show the background;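 also: 11-residue human phosphosite peptides and single-mutation variants displayed on the E. coli surface, counted by deep sequencing, each peptide's frequency after selection divided by its frequency in the unselected input library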;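 also: frequency after pTyr selection over input frequency; kinase dosed for 20-30% of maximal phosphorylation in three min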
EXPERIMENTAL READOUT: phosphorylation enrichment
Numbers only.

Field: example entries. Status: answers known.
>>> print(df.to_string())
                             sequence        experimental_readout  reported_measurement
0    LVMFISAIFGM [SCN1A_Y1684_Y1684S]  phosphorylation enrichment                  1.36
1       FDDGKYVFVVT [RPS6KA3_Y488_YF]  phosphorylation enrichment                 0.995
2           ATDLAYFLVRK [ASL_Y375_YF]  phosphorylation enrichment                   1.2
3       SVTCTSSPALN [TP53_Y126_Y126S]  phosphorylation enrichment                 0.856
4  LERFIYNREEL [HLA-DPB1_Y59_F64L_YF]  phosphorylation enrichment                  1.11

Quick batch: phosphorylation enrichment for everything below.
1. RESFKYLPSSL [CXXC1_Y218_F219L_YF]
2. NTDETYCIDNE [TUBB2B_Y200]
3. ISIFHCAKGQP [MPZ_Y82_Y82C]

1. 0.567
2. 0.982
3. 0.954
